- test.method.notes: Inhibition of cytochrome c oxidase in insecticide-susceptible Drosophila melanogaster Canton-S mitochondria using reduced cytochrome c as substrate by microplate spectrophotometer analysis
pIC50: −log10 of the molar value.
Measured pIC50 by item

// known answers, use as guide
CCC(=O)[O-].[Na+] [SODIUM PROPIONATE] : < 1.00
[N-]=[N+]=[N-] [SODIUM AZIDE] : < 1.80
O=C[O-].[Na+] [SODIUM FORMATE] : < 1.00
CC1(C)CNC(=NN=C(/C=C/c2ccc(C(F)(F)F)cc2)/C=C/c2ccc(C(F)(F)F)cc2)NC1 [HYDRAMETHYLNON] : 3.33

Now for another entry.
stdin: So what does the record say about pIC50 for CC(=O)[O-].[Na+] [SODIUM ACETATE] ?
stdout: < 1.00
